# system_under_test: CDK2/cyclin A (Homo sapiens (Human), UniProt P24941)
# test_summary: In-vitro recombinant kinase assay CDK2/cyclin A
# Format: biochemical
# experimental_conditions: Table 4, Run 1; read-out: CDK2A Run 1
pIC50: −log10 of the molar value.
property_measured: pIC50

1: CCC(Nc1nc(NCc2ccc(C(F)(F)F)nc2)c2ncn(C(C)C)c2n1)C(O)C(F)(F)F (centres unmarked) [[17]]
2: CC(C)n1cnc2c(NCc3cccnc3)nc(NCC(O)(C(F)(F)F)C(F)(F)F)nc21 [[18]]
Prompt: Lowest pIC50? choose 1 or 2 Respond with the label that goes with your answer.
Response: 2
(2: 6.15, 1: 6.52)
